target: human mPGES-1 (Homo sapiens); construct: made in house; host or cells: COS-1 cells (transient transfection; microsomal fraction used as enzyme); assay: Test for mPGES-1 inhibitory activity (microsomal enzyme, PGE2 EIA); format: biochemical; conditions: microsomes of COS-1 cells transfected with human mPGES-1 cDNA; PGH2 1 μM; 4° C., 4 minutes; PGE2 by EIA; read-out: h mPGES1 IC50
Sequence (O14684 whole entry): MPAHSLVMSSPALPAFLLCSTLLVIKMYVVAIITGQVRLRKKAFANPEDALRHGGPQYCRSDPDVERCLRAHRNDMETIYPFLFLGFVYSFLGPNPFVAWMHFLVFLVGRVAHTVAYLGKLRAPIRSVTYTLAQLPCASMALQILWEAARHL
MEASURE: IC50

Known results for molecules:
Cc1cc(=O)[nH]c(-c2c(C(F)(F)F)ccc(CNC(=O)[C@H]3C[C@H](OCc4ccc(Cl)cc4F)C3)c2F)n1 = 1.2 nM
CCc1cc(=O)[nH]c(-c2c(C(F)(F)F)ccc(CNC(=O)[C@H]3C[C@H](OCc4ccc(F)cc4Cl)C3)c2F)n1 = 9 nM
O=C(NCc1ccc(C(F)(F)F)c(-c2nc(C(F)(F)F)cc(=O)[nH]2)c1F)c1cccc(Cl)c1Cl = < 1 nM
O=c1cc(C(F)(F)F)nc(-c2c(C(F)(F)F)ccc(CNC(=O)[C@H]3C[C@@H](Oc4ccc(C(F)(F)F)cn4)C3)c2F)[nH]1 = < 1 nM
CCc1nc(-c2c(C(F)(F)F)ccc(CNC(=O)[C@H]3C[C@H](OCc4cccc(Cl)c4F)C3)c2F)[nH]c(=O)c1F = < 1 nM
Cc1cc(=O)[nH]c(-c2c(C(F)(F)F)ccc(CNC(=O)[C@H]3C[C@H](OCc4ccccc4Cl)C3)c2F)n1 = < 1 nM
O=C(NCc1ccc(C(F)(F)F)c(-c2nc(-c3ccc(C(F)(F)F)cn3)cc(=O)[nH]2)c1F)C1CCN(c2ccc3nccn3n2)CC1 = < 1 nM
CCc1nc(-c2c(C(F)(F)F)ccc(CNC(=O)[C@H]3C[C@H](OCc4ccc(F)cc4F)C3)c2F)[nH]c(=O)c1F = 1.1 nM
CCc1nc(-c2c(C(F)(F)F)ccc(CNC(=O)[C@H]3C[C@H](OCc4cccc(C(F)(F)F)c4)C3)c2F)[nH]c(=O)c1F = < 1 nM
O=c1cc(-c2ccc(C(F)(F)F)cn2)nc(-c2c(C(F)(F)F)ccc(CNS(=O)(=O)c3ccc(-c4ccccc4)cc3)c2F)[nH]1 = 76 nM

What does the record list as IC50 for CCc1cc(=O)[nH]c(-c2c(C(F)(F)F)ccc(CNC(=O)[C@H]3C[C@H](OCc4cccc(F)c4F)C3)c2F)n1 ? 15 nM

Then Cc1cc(=O)[nH]c(-c2c(C(F)(F)F)ccc(CNC(=O)[C@H]3C[C@H](OCc4ccccc4C(F)(F)F)C3)c2F)n1 ? 19 nM

Queued: O=C(NCc1ccc(C(F)(F)F)c(-c2nc(C(F)(F)F)cc(=O)[nH]2)c1F)C1Cc2ccccc2C1 < 1 nM

Similarly, O=c1cc(C(F)F)nc(-c2c(C(F)(F)F)ccc(CNC(=O)[C@H]3C[C@H](OCc4cccc(Cl)c4F)C3)c2F)[nH]1 ? < 1 nM

Follow-up entry: Cc1cc(=O)[nH]c(-c2c(C(F)(F)F)ccc(CNC(=O)[C@H]3C[C@H](OCc4ccc(F)cc4F)C3)c2F)n1 < 1 nM

Origin of measurements: patent US20250340557A1
